Recorded GI50, one value per entry.
System: K562
Assay: NCI tumour cell line growth inhibition, 48 h
Calls of active or inactive are those of the source. Cut-off read from the data, not from the text of the source: active = GI50 up to about 1.1 µM and inactive = higher.

[
  {
    "compound": "COC(=O)C1C(O)CCC2CN3CCc4c([nH]c5cccc(OC)c45)C3CC21 (stereo unspecified)",
    "assay-system": "K562",
    "GI50": "> 100 µM (inactive)"
  },
  {
    "compound": "FC(F)(F)c1cccnc1Sc1nc2ccccc2s1",
    "assay-system": "K562",
    "GI50": "> 100 µM (inactive)"
  },
  {
    "compound": "COc1ccc(C2=NN(c3ccccc3)C(c3cc4cc(Br)ccc4nc3Cl)C2)cc1 (stereo unspecified)",
    "assay-system": "K562",
    "GI50": "14.1 µM (inactive)"
  },
  {
    "compound": "Cc1nc2nc3c(ncn3COCCO)c(O)n2c1C(c1ccccc1)(c1ccccc1)c1ccccc1",
    "assay-system": "K562",
    "GI50": "9.25 µM (inactive)"
  },
  {
    "compound": "O=C1/C(=C/c2ccccc2O)N=C(c2ccccc2)N1C1Nc2cc3c(cc2S1)NC(N1C(=O)/C(=C/c2ccccc2O)N=C1c1ccccc1)S3 (stereo unspecified)",
    "assay-system": "K562",
    "GI50": "29.9 µM (inactive)"
  },
  {
    "compound": "Clc1ccccc1/C=C/c1cscn1",
    "assay-system": "K562",
    "GI50": "> 100 µM (inactive)"
  },
  {
    "compound": "O=C(CC1C(=O)Nc2ccccc2[S+]1[O-])Nc1ccc(Cl)cc1 (stereo unspecified)",
    "assay-system": "K562",
    "GI50": "> 100 µM (inactive)"
  },
  {
    "compound": "CNC(=O)c1nn[nH]c1O",
    "assay-system": "K562",
    "GI50": "> 100 µM (inactive)"
  },
  {
    "compound": "CC(=O)ON(OC(C)=O)c1ccc(C)cc1",
    "assay-system": "K562",
    "GI50": "> 100 µM (inactive)"
  },
  {
    "compound": "CN(C)c1ccc(/C=C2\\C[C@H]3[C@@H]4CCc5cc(OCCN6CCCC6)ccc5[C@H]4CC[C@]3(C)[C@H]2O)cc1",
    "assay-system": "K562",
    "GI50": "4.74 µM (inactive)"
  },
  {
    "compound": "Nc1ccccc1SC(C[N+](=O)[O-])c1ccc2c(c1)OCO2 (stereo unspecified)",
    "assay-system": "K562",
    "GI50": "1.63 µM (inactive)"
  },
  {
    "compound": "CC(=O)O[C@H]1CC[C@@]2(C)C(=CC[C@@H]3[C@@H]2CC[C@]2(C)C(=O)/C(=C\\c4ccccc4)C[C@@H]32)C1",
    "assay-system": "K562",
    "GI50": "54.7 µM (inactive)"
  },
  {
    "compound": "NC(=O)CC1(O)C=CC(=O)C=C1",
    "assay-system": "K562",
    "GI50": "> 100 µM (inactive)"
  },
  {
    "compound": "O=C(NC(Nc1ccc(F)c(Cl)c1)(C(F)(F)F)C(F)(F)F)OCc1ccccc1",
    "assay-system": "K562",
    "GI50": "10.8 µM (inactive)"
  },
  {
    "compound": "CNC/C(Cl)=N/S(=O)(=O)c1ccc(C)cc1",
    "assay-system": "K562",
    "GI50": "36.1 µM (inactive)"
  },
  {
    "compound": "COc1ccc2c(c1)CC1=C(O2)c2ccc(OC)cc2OC1",
    "assay-system": "K562",
    "GI50": "44.8 µM (inactive)"
  },
  {
    "compound": "N#CC1([N+](=O)[O-])C=C1c1ccccc1 (stereo unspecified)",
    "assay-system": "K562",
    "GI50": "23.2 µM (inactive)"
  },
  {
    "compound": "C=C1C(=O)OC2/C=C(\\C)C3OC3/C=C(/C(=O)OC)C(O)C(OC(=O)C3(C)OC3C)C12 (stereo unspecified)",
    "assay-system": "K562",
    "GI50": "0.685 µM (active)"
  },
  {
    "compound": "NC(CCCCN/C=C1/N=C(c2ccccc2)OC1=O)C(=O)O (stereo unspecified)",
    "assay-system": "K562",
    "GI50": "53.6 µM (inactive)"
  },
  {
    "compound": "COc1ccc(-c2nc(-c3cnccn3)n(C/C=C/c3ccccc3)n2)cc1",
    "assay-system": "K562",
    "GI50": "> 100 µM (inactive)"
  },
  {
    "compound": "CC(C)=CCC[C@@H](C)C1=C(O)C(=O)C(C)=C(N[C@H](C)c2ccccc2)C1=O",
    "assay-system": "K562",
    "GI50": "6.64 µM (inactive)"
  }
]

* * *

System: U-251
Experiment: NCI tumour cell line growth inhibition, 48 h
Activity calls are given as the source filed them. Cut-off read from the data, not from the text of the source: active = GI50 up to about 1.1 µM and inactive = higher.
Possible outcomes: label 1 = active, label 0 = inactive

[
  {
    "compound": "Oc1ccc(Nc2nc(Cl)c3nc[nH]c3n2)cc1",
    "class-name": "label 0"
  },
  {
    "compound": "O=C1C=Cc2c(Cl)sc(Cl)c21",
    "class-name": "label 0"
  },
  {
    "compound": "Cc1sc2nc3n(c(=O)c2c1C)N=CN(c1ccc(Cl)cc1)C3",
    "class-name": "label 0"
  },
  {
    "compound": "CC(=O)O[C@@H]1[C@@H](C)[C@]2(CC(c3ccoc3)OC2O)C2CCC3O[C@]3(C)[C@]2(C)[C@@H]1OC(C)=O (stereo partly drawn)",
    "class-name": "label 0"
  },
  {
    "compound": "COc1cc(C2c3cc4c(cc3OC(O)C2C)OCO4)cc(OC)c1OC (stereo not drawn)",
    "class-name": "label 1"
  },
  {
    "compound": "N#CC1=CNc2sccc2S1(=O)=O",
    "class-name": "label 0"
  },
  {
    "compound": "COc1ccc(C(CC(=O)C(C)(C)CN2CCCCC2)SCCS(=O)(=O)O)cc1 (stereo not drawn)",
    "class-name": "label 0"
  },
  {
    "compound": "NCCCCc1cc(O)c2c(c1O)C(=O)c1ccccc1C2=O",
    "class-name": "label 0"
  },
  {
    "compound": "O=c1oc2ccc([N+](=O)[O-])cc2c(Nc2ccc3c(c2)Sc2ccccc2O3)c1[N+](=O)[O-]",
    "class-name": "label 0"
  },
  {
    "compound": "Cn1c2ccccc2n2c3ncccc3c(=O)cc12",
    "class-name": "label 0"
  },
  {
    "compound": "O=C(N/N=C\\c1ccc([N+](=O)[O-])cc1)c1ccccc1Nc1ccccc1C(=O)N/N=C/c1ccc([N+](=O)[O-])cc1",
    "class-name": "label 0"
  },
  {
    "compound": "CNC/C(Cl)=N/S(=O)(=O)c1ccc(C)cc1",
    "class-name": "label 0"
  },
  {
    "compound": "Cc1ccc2c(c1)NC(=O)CCSSCCC(=O)N2",
    "class-name": "label 0"
  },
  {
    "compound": "O=C(O)C1=C(C(=O)Nc2ccccc2)C2C=CC1C2 (stereo not drawn)",
    "class-name": "label 0"
  },
  {
    "compound": "COc1c(C)c(C/C=C(\\C)CCCCO)c(OC)c2ccccc12",
    "class-name": "label 0"
  },
  {
    "compound": "OCCN(CCO)c1cccc(N(CCO)CCO)c1",
    "class-name": "label 0"
  },
  {
    "compound": "Cc1cnc2c(c1C)C(=O)c1ccccc1C2=O",
    "class-name": "label 0"
  },
  {
    "compound": "O=c1c2ccccc2nc2[nH][nH]c(=S)n12",
    "class-name": "label 0"
  },
  {
    "compound": "COC(=O)C1Cc2c([nH]c3ccccc23)C(c2ccccc2O)N1Cc1ccccc1 (stereo not drawn)",
    "class-name": "label 0"
  },
  {
    "compound": "OCCC1(O)CCC(O)CC1 (stereo not drawn)",
    "class-name": "label 0"
  },
  {
    "compound": "CC(C)C(CC(=O)OCC(CO)OC(=O)CC(C(C)C)C(C)C)C(C)C (stereo not drawn)",
    "class-name": "label 0"
  },
  {
    "compound": "O=C(CC(=O)c1ccccc1)C(=O)Nc1ccc(Cl)cc1",
    "class-name": "label 0"
  },
  {
    "compound": "COc1ccc(S(=O)(=O)Nc2ccc(-c3csc(N4C(=O)/C(=C/c5ccccc5)N=C4c4ccccc4)n3)cc2)cc1Cl",
    "class-name": "label 0"
  }
]

// data source = ChEMBL document CHEMBL1201862
